target of assay: PS:C4BP complex (Homo sapiens, UniProt P04003+P20851)
Construct: Purified human C4BP was obtained from 5 liters (1) of human citrated plasma; from tissue; host or cells: human citrated plasma (C4BP); protein S per Schwarz et al
Sequence (P04003 49-597): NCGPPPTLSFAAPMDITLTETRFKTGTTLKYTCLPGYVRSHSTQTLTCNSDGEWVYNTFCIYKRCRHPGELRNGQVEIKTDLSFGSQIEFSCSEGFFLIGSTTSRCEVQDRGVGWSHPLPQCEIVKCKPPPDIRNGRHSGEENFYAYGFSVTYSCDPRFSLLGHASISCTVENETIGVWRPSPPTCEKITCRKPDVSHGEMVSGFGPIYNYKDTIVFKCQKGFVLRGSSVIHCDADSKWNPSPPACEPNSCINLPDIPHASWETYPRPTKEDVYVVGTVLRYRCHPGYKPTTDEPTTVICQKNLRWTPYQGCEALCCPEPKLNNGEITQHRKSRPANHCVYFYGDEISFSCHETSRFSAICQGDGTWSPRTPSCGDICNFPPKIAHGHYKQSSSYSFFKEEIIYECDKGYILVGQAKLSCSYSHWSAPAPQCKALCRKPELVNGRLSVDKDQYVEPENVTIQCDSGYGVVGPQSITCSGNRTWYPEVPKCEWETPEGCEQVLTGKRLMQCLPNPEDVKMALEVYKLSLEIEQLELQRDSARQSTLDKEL
Sequence (P20851 18-252): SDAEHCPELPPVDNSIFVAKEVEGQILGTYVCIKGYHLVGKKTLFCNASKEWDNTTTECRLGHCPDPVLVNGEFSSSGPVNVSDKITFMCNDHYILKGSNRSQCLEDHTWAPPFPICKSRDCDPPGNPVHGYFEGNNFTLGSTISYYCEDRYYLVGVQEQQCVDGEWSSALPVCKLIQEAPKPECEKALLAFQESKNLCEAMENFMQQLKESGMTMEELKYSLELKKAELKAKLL
test description: Peptide Inhibition Assay: binding of b-PS to C4BP in solid phase
study conditions: peptide concentration of 800 µM; read-out: percent inhibition of PS:C4BP complex formation
Peptide text beside a SMILES is read from it.
readout kind: inhibition at 800 µM

Recorded results for 4 compounds are shown here.
CC[C@H](C)[C@H](NC(=O)CNC(=O)[C@H](CO)NC(=O)[C@H](C)NC(=O)CNC(=O)[C@H](CCC(N)=O)NC(=O)[C@H](CCCCN)NC(=O)[C@H](CCSC)NC(=O)[C@H](CC(C)C)NC(=O)[C@@H](N)CC(N)=O)C(N)=O [PSP-417] (H-NLMKQGASGI-NH2) | ~60%
NCCCC[C@H](NC(=O)[C@H](CC(N)=O)NC(=O)[C@H](CCC(N)=O)NC(=O)[C@H](CCCCN)NC(=O)[C@H](CCC(=O)O)NC(=O)[C@@H](N)CCC(N)=O)C(=O)N[C@@H](Cc1c[nH]cn1)C(=O)N[C@@H](CO)C(N)=O [PSP-430*] (H-QEKQNKHS-NH2) | ~80%
CC[C@H](C)[C@H](NC(=O)CN)C(=O)N[C@@H](CCCCN)C(=O)N[C@@H](CCC(=O)O)C(=O)N[C@H](C(=O)N[C@H](C(=O)N[C@@H](CCC(N)=O)C(N)=O)[C@@H](C)CC)[C@@H](C)CC [PSP-424, GIKEIIQ] (H-GIKEIIQ-NH2) | 40%
CC[C@H](C)[C@H](NC(=O)CNC(=O)[C@H](CO)NC(=O)[C@H](C)NC(=O)CNC(=O)[C@@H](N)CCC(N)=O)C(=O)N[C@@H](CCCCN)C(=O)N[C@@H](CCC(=O)O)C(N)=O [PSP-417A] (H-QGASGIKE-NH2) | ~80%

For each entry beneath this line, provide reported inhibition at 800 µM.
1. CC[C@H](C)[C@H](NC(=O)[C@H](CCC(=O)O)NC(=O)[C@@H](N)CCCCN)C(=O)N[C@H](C(=O)N[C@@H](CCC(N)=O)C(=O)N[C@@H](CCC(=O)O)C(=O)N[C@@H](CCCCN)C(=O)N[C@@H](CCC(N)=O)C(=O)N[C@@H](CC(N)=O)C(=O)N[C@@H](CCCCN)C(=O)N[C@@H](Cc1c[nH]cn1)C(=O)N[C@@H](CO)C(N)=O)[C@@H](C)CC [PSP-428*, KEIIQEKQNKHS] (H-KEIIQEKQNKHS-NH2)
2. CC[C@H](C)[C@H](NC(=O)CNC(=O)[C@@H](N)CO)C(=O)N[C@@H](CCCCN)C(=O)N[C@@H](CCC(=O)O)C(=O)N[C@H](C(=O)N[C@H](C(=O)N[C@@H](CCC(N)=O)C(=O)N[C@@H](CCC(=O)O)C(=O)N[C@@H](CCCCN)C(=O)N[C@@H](CCC(N)=O)C(=O)N[C@@H](CC(N)=O)C(=O)N[C@@H](CCCCN)C(=O)N[C@@H](Cc1c[nH]cn1)C(=O)N[C@@H](CS)C(N)=O)[C@@H](C)CC)[C@@H](C)CC [PSP-12] (H-SGIKEIIQEKQNKHC-NH2; N-terminus assumed)

OUTPUT:
1: ~60%; 2: 80%

INPUT: inhibition at 800 µM for CC[C@H](C)[C@H](NC(=O)CNC(=O)[C@H](CO)NC(=O)[C@H](C)NC(=O)CNC(=O)[C@H](CCC(N)=O)NC(=O)[C@H](CCCCN)NC(=O)[C@H](CCSC)NC(=O)[C@H](CC(C)C)NC(=O)[C@@H](N)CC(N)=O)C(=O)N[C@@H](CCCCN)C(=O)N[C@@H](CCC(=O)O)C(N)=O [PSP-417P] (H-NLMKQGASGIKE-NH2) ?
OUTPUT: ~60%
